# assay method text: Absorption and emission spectra (photophysical properties)
# Assay type: physicochemical
# test settings: 10 μM solutions
measurement kind: λmax Em (nm)
Numbers only, in nm.

Some solved cases for reference:
stdin: // λmax Em lookup, key: COC(=O)c1c(C(=O)OCCCNC(=O)CCCOc2cc(I)c(OC)cc2CC(C)N)c2cc3c(cc2c2cc4c(cc12)CCC4)CCC3 (stereo not drawn) [12f]
stdout: 428

stdin: // λmax Em lookup, key: CCN(CC)c1ccc2c(-c3ccccc3C(=O)NCCC(=O)NCCC(=O)NCCCOCCOCCOCCCNC(=O)CCCOc3cc(I)c(OC)cc3CC(C)N)c3ccc(=[N+](CC)CC)cc-3oc2c1 (stereo not drawn) [12i]
stdout: 580

stdin: // λmax Em lookup, key: COC(=O)c1c(C(=O)OCCCNC(=O)CCCOc2cc(I)c(OC)cc2CC(C)N)c2cc3ccccc3cc2c2cc3ccccc3cc12 (stereo not drawn) [12g]
stdout: 498

stdin: // λmax Em lookup, key: COC(=O)c1c(C(=O)OCCCNC(=O)CCCOc2cc(I)c(OC)cc2CC(C)N)c2cc(F)c(F)cc2c2cc(F)c(F)cc12 (stereo not drawn) [12e]
stdout: 398

stdin: // λmax Em lookup, key: COc1cc(CC(C)N)c(OCCCC(=O)NCCCN2C(=O)c3c(c4ccccc4c4ccccc34)C2=O)cc1I (stereo not drawn) [12c]
stdout: 466

stdin: // λmax Em lookup, key: COC(=O)c1c(C(=O)OCCCNC(=O)CCCOc2cc(I)c(OC)cc2CC(C)N)c2ccccc2c2ccccc12 (stereo not drawn) [12d]
stdout: 403

stdin: // λmax Em lookup, key: COc1cc(CC(C)N)c(OCCCC(=O)NCCCNS(=O)(=O)c2cccc3c(N(C)C)cccc23)cc1I (stereo not drawn) [10a]
stdout: 497

stdin: // λmax Em lookup, key: CCCCCCC(CCCCCC)N1C(=O)c2ccc3c4ccc5c6c(ccc(c7ccc(c2c37)C1=O)c64)C(=O)N(CCCNC(=O)CCCOc1cc(I)c(OC)cc1CC(C)N)C5=O (stereo not drawn) [12h]
stdout: 530

Let us examine a further case.
stdin: // λmax Em lookup, key: COc1cc(CC(C)N)c(OCCCC(=O)NCCCNc2ccc([N+](=O)[O-])c3nonc23)cc1I (stereo not drawn) [12b]
stdout: 530
